biological target: myeloperoxidase (MPO) (Homo sapiens, UniProt P05164); test: MPO peroxidation assay (Amplex Red assay); assay type: biochemical; details: MPO peroxidation, potency range class; read-out: Amplex Red IC50
Sequence (P05164 49-745): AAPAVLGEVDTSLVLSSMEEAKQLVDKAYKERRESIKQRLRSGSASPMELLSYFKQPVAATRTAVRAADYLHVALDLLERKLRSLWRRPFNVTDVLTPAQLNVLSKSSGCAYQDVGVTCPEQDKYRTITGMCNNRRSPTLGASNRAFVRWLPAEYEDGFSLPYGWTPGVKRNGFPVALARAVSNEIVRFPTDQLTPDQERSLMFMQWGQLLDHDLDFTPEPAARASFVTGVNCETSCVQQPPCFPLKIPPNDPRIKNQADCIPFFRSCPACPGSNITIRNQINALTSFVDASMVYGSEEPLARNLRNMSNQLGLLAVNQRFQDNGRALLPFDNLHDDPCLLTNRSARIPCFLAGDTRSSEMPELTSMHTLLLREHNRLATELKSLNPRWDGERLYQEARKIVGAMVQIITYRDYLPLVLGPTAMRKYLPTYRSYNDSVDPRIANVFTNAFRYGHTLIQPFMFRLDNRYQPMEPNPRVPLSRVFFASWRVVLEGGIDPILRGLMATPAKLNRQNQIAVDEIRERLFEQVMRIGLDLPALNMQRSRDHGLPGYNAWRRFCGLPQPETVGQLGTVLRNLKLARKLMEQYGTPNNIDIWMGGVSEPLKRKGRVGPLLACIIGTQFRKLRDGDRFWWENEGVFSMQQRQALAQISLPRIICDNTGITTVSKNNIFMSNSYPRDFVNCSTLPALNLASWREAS
pIC50: −log10 of the molar value.
Task for the reader: assign each of the following compounds its reported pIC50.

Answered cases to consult:
compound	experimental.target	result
N#Cc1cc(-c2ccc(O)nc2)ccc1COc1cc(N)nc2[nH]nnc12	myeloperoxidase (MPO) (Homo sapiens, UniProt P05164)	7.00 to 9.00
CC(=O)Nc1cccc(C(C)Oc2cc(N)nc3[nH]nnc23)c1 (stereo not drawn)	myeloperoxidase (MPO) (Homo sapiens, UniProt P05164)	6.00 to 7.00
COc1c(Br)cccc1COc1cc(N)nc2[nH]nnc12	myeloperoxidase (MPO) (Homo sapiens, UniProt P05164)	7.00 to 9.00

Batch request: pIC50 for each of the following compounds.
1. Nc1cc(OCc2cc(Cl)ccc2OC2CCCC2)c2nn[nH]c2n1
2. Nc1cc(OCc2cccc(-n3cncn3)c2)c2nn[nH]c2n1
3. COc1c(F)cccc1-c1cccc(COc2cc(N)nc3[nH]nnc23)c1

7.00 to 9.00
7.00 to 9.00
7.00 to 9.00

---

molecular target: myeloperoxidase (MPO) (Homo sapiens); assay: MPO peroxidation assay (Amplex Red assay); assay type: biochemical; conditions: MPO peroxidation, potency range class; read-out: Amplex Red IC50
pIC50: −log10 of the molar value.
Task for the reader: assign each of the following compounds its reported pIC50.

Field: example entries. Status: answers known.
compound	pIC50
Cc1cn(-c2ccc(COc3cc(N)nc4[nH]nnc34)c(OC(F)(F)F)c2)cn1 [Example 273]	6.00 to 7.00
CS(=O)(=O)c1cc(-n2ncc3ccccc32)ccc1COc1cc(N)nc2[nH]nnc12 [Example 282]	7.00 to 9.00
Nc1cc(OCc2ccc(-n3cnc(C(F)(F)F)c3)cc2OC(F)(F)F)c2nn[nH]c2n1 [Example 272]	6.00 to 7.00
Nc1cc(OCc2c(F)cccc2Cl)c2nn[nH]c2n1 [Example 237]	7.00 to 9.00
COc1c(COc2cc(N)nc3[nH]nnc23)cccc1-c1ccn(C)n1 [Example 80]	6.00 to 7.00
CSc1ccc(-c2ccc(COc3cc(N)nc4[nH]nnc34)c(OC(F)(F)F)c2)cn1 [Example 289]	7.00 to 9.00

// input: 2 compounds below; output: pIC50 for each
1. CC(=O)N[C@H]1CCN(C(=O)c2ccc(COc3cc(N)nc4[nH]nnc34)c(Cl)c2)C1 [Example 212]
2. CN(CCO)C(=O)c1ccc(F)c(COc2cc(N)nc3[nH]nnc23)c1 [Example 154]

6.00 to 7.00
6.00 to 7.00

Dear colleague, could you send me pIC50 for each of the items below? Thanks.
1. Nc1cc(OCc2cc(-c3cccc(F)c3)ccc2F)c2nn[nH]c2n1 [Example 71]
2. Cc1c(Br)cccc1COc1cc(N)nc2[nH]nnc12 [Example 60]

1. 7.00 to 9.00
2. 7.00 to 9.00

// batch mode: one pIC50 value per listed entry
1. COc1ccc(-c2cccc(COc3cc(N)nc4[nH]nnc34)c2)c(F)c1 [Example 64]
2. COC(=O)c1ccc(Cl)c(COc2cc(N)nc3[nH]nnc23)c1 [Example 171]
3. Nc1cc(OC(c2ccccc2)C(F)F)c2nn[nH]c2n1 (racemic) [Example 138]
4. Nc1cc(OCc2ccc(C(=O)N3CCCC(Oc4ccccc4)C3)cc2Cl)c2nn[nH]c2n1 (centres unmarked) [Example 209]
5. Nc1cc(OCc2cccc(-c3ccc(NC(=O)c4ccccc4)cc3)c2)c2nn[nH]c2n1 [Example 100]

["6.00 to 7.00", "7.00 to 9.00", "6.00 to 7.00", "7.00 to 9.00", "7.00 to 9.00"]

State recorded pIC50 for all listed compounds.
1. Nc1cc(OCc2ccc(-c3ccc(Cl)nc3)cc2OC(F)(F)F)c2nn[nH]c2n1 [Example 302]
2. Nc1cc(OCc2ccc(-c3ccc(N4CCOCC4)nc3)cc2OC(F)(F)F)c2nn[nH]c2n1 [Example 303]

1. 7.00 to 9.00
2. 7.00 to 9.00
